TARGET OR TEST SYSTEM: MCL-1 (Homo sapiens, UniProt Q07820)
Sequence (Q07820 whole entry, species assumed): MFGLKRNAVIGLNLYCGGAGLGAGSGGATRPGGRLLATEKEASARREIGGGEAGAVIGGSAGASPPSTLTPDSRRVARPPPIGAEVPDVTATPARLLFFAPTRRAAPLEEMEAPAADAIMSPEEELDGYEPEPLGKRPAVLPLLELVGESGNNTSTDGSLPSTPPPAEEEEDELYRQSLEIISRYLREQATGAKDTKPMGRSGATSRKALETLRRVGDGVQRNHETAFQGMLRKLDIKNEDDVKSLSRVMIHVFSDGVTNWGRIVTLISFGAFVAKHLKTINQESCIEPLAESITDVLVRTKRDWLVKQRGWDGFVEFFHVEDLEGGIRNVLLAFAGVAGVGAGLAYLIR
TEST METHOD NOTES: MCL-1 binding
Ends that are not written are not given here.
RECORDED ENDPOINT: Kd

Req: # input sequence: EDIIRNIARHAAQVGASMDR [BIDBH3 mut] ; wanted: its Kd
Resp: > 2600 nM

----------
TARGET OR TEST SYSTEM: GST-BCL-2 (Homo sapiens)
Construct: a GST-BCL-2 fusion protein lacking the C-terminal transmembrane domain was utilized; made in house; host or cells: E. coli BL21 DE3
TEST METHOD NOTES: Fluorescence polarization binding of fluoresceinated BH3 peptides to GST-BCL-2
TEST PARAMETERS: Kd (nM), BCL-2 Binding, 25 nM fluoresceinated peptide, GST-BCL-2 titration, 37° C.
Ends that are not written are not given here.
RECORDED ENDPOINT: Kd

Req: Fill blank: measured Kd of the sequence EDIIRNIARHAAQVGASMDR [BIDBH3 mut] is ____.
Resp: > 1000 nM

----------
TARGET OR TEST SYSTEM: GST-BCL-2 (Homo sapiens, UniProt P10415)
Construct: a GST-BCL-2 fusion protein lacking the C-terminal transmembrane domain was utilized; made in house; host or cells: E. coli BL21 DE3
Sequence (P10415 1-218 limits assumed): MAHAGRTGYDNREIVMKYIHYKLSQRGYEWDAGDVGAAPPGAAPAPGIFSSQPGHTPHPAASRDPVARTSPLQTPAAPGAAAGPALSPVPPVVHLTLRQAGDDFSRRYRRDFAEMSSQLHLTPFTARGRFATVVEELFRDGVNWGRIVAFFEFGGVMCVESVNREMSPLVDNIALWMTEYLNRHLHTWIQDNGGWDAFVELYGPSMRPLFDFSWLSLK
TEST METHOD NOTES: Fluorescence polarization binding of fluoresceinated BH3 peptides to GST-BCL-2
TEST PARAMETERS: 25 nM fluoresceinated peptide, GST-BCL-2 titration, 37° C.; read-out: Kd (nM), BCL-2 Binding
Ends that are not written are not given here.
RECORDED ENDPOINT: Kd

Req: Which Kd value belongs to VIPMAAVKQALREAGDEFEL [BCLXBH3] ?
Resp: > 1000 nM

----------
TARGET OR TEST SYSTEM: GST-BCL-2 (Homo sapiens, UniProt P10415)
Construct: a GST-BCL-2 fusion protein lacking the C-terminal transmembrane domain was utilized; made in house; host or cells: E. coli BL21 DE3
TEST METHOD NOTES: BH3 peptide displacement from GST-BCL-2 by fluorescence polarization
Assay type: binding
TEST PARAMETERS: read-out: IC50 (nM), BID Displacement
Ends that are not written are not given here.
RECORDED ENDPOINT: IC50

Req: # IC50 lookup, item VIPMAAVKQALREAGDEFEL [BCLXBH3]
Resp: > 30000 nM
